- Test system: Fer (mouse);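 also: 11-residue human phosphosite peptides and single-mutation variants displayed on the E. coli surface, counted by deep sequencing, each peptide's frequency after selection divided by its frequency in the unselected input library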;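 also: frequency after pTyr selection over input frequency; kinase dosed for 20-30% of maximal phosphorylation in three min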
- PROCEDURE SUMMARY: phosphorylation enrichment, bacterial display (enrichment ratio); higher = better substrate or ligand; peptides without Tyr show the background
Overview of recorded phosphorylation enrichment for various sequences
MEASUREMENT NAME: phosphorylation enrichment

SEQ STRING: ESLSSYRESAK [APOC2_Y47_W48R]
VALUE REPORTED: 0.314
//
SEQ STRING: YSSLGYPPPEG [ZSWIM4_Y87]
VALUE REPORTED: 0.67
//
SEQ STRING: VVLEDYLDIKN [CLCNKB_Y138]
VALUE REPORTED: 0.391
//
SEQ STRING: DVCKNYAKAKD [ALB_Y343_E345K]
VALUE REPORTED: 0.473
